- TESTED ON: UniProt:P35354
- Sequence (P35354 18-604): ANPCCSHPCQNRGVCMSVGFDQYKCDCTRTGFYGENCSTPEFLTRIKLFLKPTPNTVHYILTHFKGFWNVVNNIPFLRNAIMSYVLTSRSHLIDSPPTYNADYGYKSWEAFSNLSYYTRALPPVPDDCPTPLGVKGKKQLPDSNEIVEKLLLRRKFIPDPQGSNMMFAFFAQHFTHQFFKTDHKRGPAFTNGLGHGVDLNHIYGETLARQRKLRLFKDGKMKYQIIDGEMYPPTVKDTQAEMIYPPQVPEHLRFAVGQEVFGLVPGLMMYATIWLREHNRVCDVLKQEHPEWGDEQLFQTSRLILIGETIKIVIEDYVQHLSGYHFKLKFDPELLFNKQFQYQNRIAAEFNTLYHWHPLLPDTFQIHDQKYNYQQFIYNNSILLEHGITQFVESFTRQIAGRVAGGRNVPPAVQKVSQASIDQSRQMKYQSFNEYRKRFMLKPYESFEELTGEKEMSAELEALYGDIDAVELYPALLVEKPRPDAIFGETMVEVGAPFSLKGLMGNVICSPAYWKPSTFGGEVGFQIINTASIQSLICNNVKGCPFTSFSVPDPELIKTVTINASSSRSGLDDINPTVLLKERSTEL
- TEST DESCRIPTION: Assay of the activity of purified human COX-2 (TMPD chromogenic assay)
- Format: biochemical
- Parameters: made in house; host or cells: Sf9 cells
- CONDITION SET: Table III; purified enzyme, TMPD oxidation; read-out: COX-2 (IC50) TMPD
- Method: Assay of the activity of purified human COX-2 The assay mixture (180 µL) contains 100 mM sodium phosphate, pH 6.5, 2 mM genapol X-100, 1 µM hematin, 1 mg/ml gelatin , 80-100 units of purified enzyme (One unit of enzyme is defined as the amount of enzyme required to produce an O.D. change of 0.001/min at 610 nm) and 4 µL of the test compound in DMSO. […] The enzymatic activity is measured by estimation of the initial velocity of TMPD oxidation over the first 36 sec of the reaction. […]
MEASURE NAME: IC50 (µM)

molecule=CC1(C)OC(=O)C(Oc2ccc(F)cc2F)=C1c1ccc(S(C)(=O)=O)cc1 unit_info=µM data_value=3.3

A. CC1(C)OC(=O)C(Sc2ccc(F)cc2)=C1c1ccc(S(C)(=O)=O)cc1
B. CC1(C)OC(=O)C(C(=O)c2ccc(F)c(F)c2)=C1c1ccc(S(C)(=O)=O)cc1
C. NS(=O)(=O)c1ccc(C2=C(Sc3ccccc3)C(=O)OC23CCCC3)cc1
D. COC1(C)OC(=O)C(Oc2ccc(F)c(F)c2)=C1c1ccc(S(C)(=O)=O)cc1 (stereo not drawn) [Example 24c]
E. Cc1cccc(OC2=C(c3ccc(S(C)(=O)=O)cc3)C(C)(C)OC2=O)n1
Put these in order: smallest IC50 first, largest last. Reply: labels, ordered per the request.
C, A, D, B, E
(C: 0.2 µM, A: 0.5 µM, D: 3 µM, B: 5.51 µM, E: 14 µM)

====

- TESTED ON: CHO [hCOX-2] (Homo sapiens)
- Construct: expressed in transfected cells; host or cells: CHO cells, stably transfected with pCDNAIII
- TEST DESCRIPTION: Whole cell assay for COX-2 using CHO transfected cell line (PGE2 synthesis)
- Format: cell-based
- CONDITION SET: Table IV; CHO[hCOX-2] cells, 10 µM AA; read-out: COX-2(IC50, µM) CHO
MEASURE NAME: IC50 (µM)

Below, 4 compounds whose answers are already recorded.
molecular_string=Cc1ccc(OC2=C(c3ccc(S(C)(=O)=O)cc3)C(C)(C)OC2=O)cn1 tested_on="CHO [hCOX-2] (Homo sapiens)" data_value=0.92
molecular_string=Cc1ccnc(OC2=C(c3ccc(S(C)(=O)=O)cc3)C(C)(C)OC2=O)c1 tested_on="CHO [hCOX-2] (Homo sapiens)" data_value=0.34
molecular_string=CCC(CC)OC1=C(c2ccc(S(C)(=O)=O)cc2)C(C)(C)OC1=O tested_on="CHO [hCOX-2] (Homo sapiens)" data_value=0.03
molecular_string=Cc1cc(OC2=C(c3ccc(S(C)(=O)=O)cc3)C(C)(C)OC2=O)ncc1F tested_on="CHO [hCOX-2] (Homo sapiens)" data_value=0.15

I. CC1(C)OC(=O)C(OCC2CC2)=C1c1ccc(S(C)(=O)=O)cc1
II. C[C@]1(CC(F)(F)F)OC(=O)C(Oc2ccc(Br)cn2)=C1c1ccc(S(C)(=O)=O)cc1
Between I and II , whose recorded IC50 is greater? Selection: enter the item's label.
II
(II: 0.07 µM, I: 0.01 µM)
